# System: P. falciparum NF54-pfs16-GFP late (IV-V) stage gametocytes
# protocol: relative % inhibition of viable gametocyte number; higher = more gametocytocidal
# protocol_conditions: 5 µM; stage: late (IV-V) gametocyte; incubation 72 h
Please assign a class to every record based on measured relative % inhibition, with ranges band 1 (below 20%), band 2 (20% to below 60%), band 3 (60% or more)

{"columns": ["compound", "study_target", "label_value"],
 "data": [
  ["COc1cccc(C2(C)Nc3ccccc3-c3nc4ccccc4n32)c1 (stereo not given)", "P. falciparum NF54-pfs16-GFP late (IV-V) stage gametocytes", "band 1"],
  ["CCN(CC)S(=O)(=O)c1ccc(-c2csc(Nc3ccc(C)c(C)c3)n2)cc1", "P. falciparum NF54-pfs16-GFP late (IV-V) stage gametocytes", "band 2"],
  ["COc1cc(C(=O)Nc2nc3c(cc4c5c(cccc53)CC4)s2)cc(OC)c1OC", "P. falciparum NF54-pfs16-GFP late (IV-V) stage gametocytes", "band 1"],
  ["O=C(Nc1nc(-c2ccccn2)cs1)c1ccccc1Br", "P. falciparum NF54-pfs16-GFP late (IV-V) stage gametocytes", "band 3"],
  ["COc1ccc(C2Sc3ccccc3N=C3C2=C(O)c2ccccc23)cc1 (stereo not given)", "P. falciparum NF54-pfs16-GFP late (IV-V) stage gametocytes", "band 2"],
  ["CCN(CC)CCNc1ccnc2cc3ccccc3cc12", "P. falciparum NF54-pfs16-GFP late (IV-V) stage gametocytes", "band 2"],
  ["COc1ccc2c(=O)cc(C(Cl)(Cl)Cl)oc2c1", "P. falciparum NF54-pfs16-GFP late (IV-V) stage gametocytes", "band 1"],
  ["COc1ccc(C=C2SC(=N)N(c3ccccc3OC)C2=O)cc1", "P. falciparum NF54-pfs16-GFP late (IV-V) stage gametocytes", "band 3"],
  ["COCCN(C(=O)Cc1cccs1)C(C(=O)NCc1ccc(OC)cc1)c1ccc(C(C)C)cc1 (stereo not given)", "P. falciparum NF54-pfs16-GFP late (IV-V) stage gametocytes", "band 1"],
  ["CC(C)(C)CC(C)(C)NCC(O)COc1ccc(Cl)cc1Cl (stereo not given)", "P. falciparum NF54-pfs16-GFP late (IV-V) stage gametocytes", "band 3"],
  ["c1ccc(Cn2c(N=Nc3c(Nc4ccccc4)ccc4ccccc34)nc3ccccc32)cc1", "P. falciparum NF54-pfs16-GFP late (IV-V) stage gametocytes", "band 3"],
  ["OC(CNC1CCCCC1)Cn1c2ccc(I)cc2c2cc(I)ccc21 (stereo not given)", "P. falciparum NF54-pfs16-GFP late (IV-V) stage gametocytes", "band 3"],
  ["OC(CNC1CCCCC1)Cn1c2ccccc2c2ccccc21 (stereo not given)", "P. falciparum NF54-pfs16-GFP late (IV-V) stage gametocytes", "band 3"],
  ["CN1CCN(c2nc(Nc3ccc(O)cc3)nc3ccccc23)CC1", "P. falciparum NF54-pfs16-GFP late (IV-V) stage gametocytes", "band 1"],
  ["Cc1ccc2nc(C)cc(Nc3cccc(C(F)(F)F)c3)c2c1", "P. falciparum NF54-pfs16-GFP late (IV-V) stage gametocytes", "band 1"],
  ["FC(F)(F)c1cccc(Nc2nc(-c3ccccc3)nc3ncccc23)c1", "P. falciparum NF54-pfs16-GFP late (IV-V) stage gametocytes", "band 1"],
  ["CCCCCn1c(=N)n(CC(O)COc2cccc(C)c2)c2ccccc21 (stereo not given)", "P. falciparum NF54-pfs16-GFP late (IV-V) stage gametocytes", "band 2"],
  ["CCOC(=O)C1CCN(C(=O)CN2C(=O)c3ccccc3C2c2c[nH]c3ccccc23)CC1 (stereo not given)", "P. falciparum NF54-pfs16-GFP late (IV-V) stage gametocytes", "band 3"],
  ["Cc1ccc(Nc2nc(-c3ccccn3)cs2)cc1", "P. falciparum NF54-pfs16-GFP late (IV-V) stage gametocytes", "band 3"],
  ["OC(CNC1CCCC1)Cn1c2ccccc2c2ccccc21 (stereo not given)", "P. falciparum NF54-pfs16-GFP late (IV-V) stage gametocytes", "band 3"],
  ["CCOc1ccc(C2N(C)c3ccccc3N2C)cc1", "P. falciparum NF54-pfs16-GFP late (IV-V) stage gametocytes", "band 1"],
  ["COc1cc(OC)cc(N2C(=O)N(Cc3ccc(C(C)(C)C)cc3)c3ccccc3S2(=O)=O)c1", "P. falciparum NF54-pfs16-GFP late (IV-V) stage gametocytes", "band 2"],
  ["CCN(CC)CCCNc1nc(-c2ccc(Cl)cc2)nc2ccccc12", "P. falciparum NF54-pfs16-GFP late (IV-V) stage gametocytes", "band 2"],
  ["O=C(Nc1ccc(CN2CCOCC2)cc1)c1ccc(-c2ccc(Br)cc2)o1", "P. falciparum NF54-pfs16-GFP late (IV-V) stage gametocytes", "band 1"],
  ["Cc1ccc(Nc2nc(N)c3ccccc3n2)cc1Cl", "P. falciparum NF54-pfs16-GFP late (IV-V) stage gametocytes", "band 2"],
  ["CCOC(=O)c1cnc2c(C)cccc2c1Nc1ccc(C(C)=O)cc1", "P. falciparum NF54-pfs16-GFP late (IV-V) stage gametocytes", "band 1"],
  ["Oc1c2c(nc3ccccc13)CCCC2", "P. falciparum NF54-pfs16-GFP late (IV-V) stage gametocytes", "band 3"],
  ["COc1ccc(C2c3ccc4ccccc4c3Oc3ncn(CCCn4ccnc4)c(=N)c32)cc1OC (stereo not given)", "P. falciparum NF54-pfs16-GFP late (IV-V) stage gametocytes", "band 3"],
  ["Nc1nc(Nc2cccc(F)c2)nc2ccccc12", "P. falciparum NF54-pfs16-GFP late (IV-V) stage gametocytes", "band 1"],
  ["OC(CNCC1CCCO1)Cn1c2ccc(Cl)cc2c2cc(Cl)ccc21 (stereo not given)", "P. falciparum NF54-pfs16-GFP late (IV-V) stage gametocytes", "band 3"],
  ["CC(C)CCNCC(O)Cn1c2ccccc2c2ccccc21 (stereo not given)", "P. falciparum NF54-pfs16-GFP late (IV-V) stage gametocytes", "band 3"],
  ["Cc1ccnc(NC(c2cccc(OCc3ccccc3)c2)c2ccc3cccnc3c2O)c1 (stereo not given)", "P. falciparum NF54-pfs16-GFP late (IV-V) stage gametocytes", "band 2"],
  ["Cc1ccc2c(C)nc(Nc3nc(C)cc(-c4ccccc4)n3)nc2c1", "P. falciparum NF54-pfs16-GFP late (IV-V) stage gametocytes", "band 3"],
  ["Cc1cc(C)c2c(c1)OCN(Cc1ccccc1Cl)C2", "P. falciparum NF54-pfs16-GFP late (IV-V) stage gametocytes", "band 2"],
  ["CCOC(=O)c1c(C)n(-c2ccccc2)c2ccc(OC(=O)c3cc(OC)c(OC)c(OC)c3)cc12", "P. falciparum NF54-pfs16-GFP late (IV-V) stage gametocytes", "band 1"],
  ["COc1ccc(CCN2CCC(CN(C)Cc3cnn(-c4ccccc4)c3)CC2)cc1", "P. falciparum NF54-pfs16-GFP late (IV-V) stage gametocytes", "band 1"],
  ["Cn1c(=O)c2cc(C(=O)NCCCN3CCCCCC3)sc2c2ccccc21", "P. falciparum NF54-pfs16-GFP late (IV-V) stage gametocytes", "band 1"],
  ["COc1ccccc1CNC(=O)CCn1c(=O)[nH]c2ccsc2c1=O", "P. falciparum NF54-pfs16-GFP late (IV-V) stage gametocytes", "band 1"],
  ["Cc1cccc(N2C(=O)C3C(C2=O)C2(c4ccccc4)C(=O)C3(c3ccccc3)C(c3ccc4c(c3)OCO4)=C2c2ccc3c(c2)OCO3)c1 (stereo not given)", "P. falciparum NF54-pfs16-GFP late (IV-V) stage gametocytes", "band 1"],
  ["CN(C)CCCNc1c2ccccc2nc2ccccc12", "P. falciparum NF54-pfs16-GFP late (IV-V) stage gametocytes", "band 3"],
  ["Fc1ccc2[nH]c3c(NCCCN4CCOCC4)ncnc3c2c1", "P. falciparum NF54-pfs16-GFP late (IV-V) stage gametocytes", "band 2"],
  ["OCCNc1nc(Nc2ccc(Cl)c(Cl)c2)nc2ccccc12", "P. falciparum NF54-pfs16-GFP late (IV-V) stage gametocytes", "band 2"]
]}
